The reported measurements were obtained from the supplement of paper PMC10307832.

Test system: NCI-H23
Test: relative viability (nuclei count vs DMSO), 5 days (fraction); higher = more cells survive
Settings: first compound 0.01 µM
relative viability strictly less than 0.4 = t. Otherwise f.

compound | classification
CCN(CC)CCCCNc1ncc2cc(-c3cc(OC)cc(OC)c3)c(NC(=O)NC(C)(C)C)nc2n1 + Cc1nc(NC(=O)N2CCC[C@H]2C(N)=O)sc1-c1ccnc(C(C)(C)C(F)(F)F)c1 [Alpelisib] (partner 2 µM) | f

Ask: Find out if reported relative viability for O=c1cc(N2CCOCC2)oc2c(-c3cccc4c3sc3ccccc34)cccc12 + CS(=O)(=O)N1CCN(Cc2cc3nc(-c4cccc5[nH]ncc45)nc(N4CCOCC4)c3s2)CC1 [Pictilisib] (partner 1 µM) is less than 0.4
Result: f

Ask: Find out if reported relative viability for O=c1cc(N2CCOCC2)oc2c(-c3cccc4c3sc3ccccc34)cccc12 + C[C@@H](Oc1cc(-c2cnn(C3CCNCC3)c2)cnc1N)c1c(Cl)ccc(F)c1Cl [Crizotinib] (partner 1 µM) is less than 0.4
Result: f

Ask: Find out if reported relative viability for CCN(CC)CCCCNc1ncc2cc(-c3cc(OC)cc(OC)c3)c(NC(=O)NC(C)(C)C)nc2n1 + CS(=O)(=O)N1CCN(Cc2cc3nc(-c4cccc5[nH]ncc45)nc(N4CCOCC4)c3s2)CC1 [Pictilisib] (partner 1 µM) is less than 0.4
Result: f

Ask: Find out if reported relative viability for CCN(CC)CCCCNc1ncc2cc(-c3cc(OC)cc(OC)c3)c(NC(=O)NC(C)(C)C)nc2n1 + COc1cccc2cc(-c3nc([C@H]4CC[C@H](C(=O)O)CC4)n4ncnc(N)c34)[nH]c12 [OSI-027] (partner 0.5 µM) is less than 0.4
Result: f

Ask: Find out if reported relative viability for CCN(CC)CCCCNc1ncc2cc(-c3cc(OC)cc(OC)c3)c(NC(=O)NC(C)(C)C)nc2n1 + NC(=O)Nc1cc(-c2cccc(F)c2)sc1C(=O)N[C@H]1CCCNC1 [AZD7762] (partner 0.2 µM) is less than 0.4
Result: t

Ask: Find out if reported relative viability for O=c1cc(N2CCOCC2)oc2c(-c3cccc4c3sc3ccccc34)cccc12 + CCNC(=O)c1noc(-c2cc(C(C)C)c(O)cc2O)c1-c1ccc(CN2CCOCC2)cc1 [Luminespib] (partner 0.01 µM) is less than 0.4
Result: t

---

Test system: ABC-1
Assay: relative viability (nuclei count vs DMSO), 5 days (fraction); higher = more cells survive
Details: first compound 0.8 µM
Below, each entry is listed alongside its reported relative viability.
Answer with the value's number alone.

Before answering, review these 3 worked examples.
compound | test_target | readout_value
O=c1cc(-c2cccc3c2Sc2ccccc2S3)oc(N2CCOCC2)c1 + Cc1nc(NC(=O)N2CCC[C@H]2C(N)=O)sc1-c1ccnc(C(C)(C)C(F)(F)F)c1 [Alpelisib] (partner 2 µM) | ABC-1 | 1.16
COc1nc(C)cnc1NS(=O)(=O)c1cccnc1-c1ccc(-c2nnco2)cc1 [Zibotentan] + CS(=O)(=O)CCNCc1ccc(-c2ccc3ncnc(Nc4ccc(OCc5cccc(F)c5)c(Cl)c4)c3c2)o1 [Lapatinib] (partner 2 µM) | ABC-1 | 0.971
COc1nc(C)cnc1NS(=O)(=O)c1cccnc1-c1ccc(-c2nnco2)cc1 [Zibotentan] + C[C@]1(O)C[C@@H](c2nc(-c3ccc4ccc(-c5ccccc5)nc4c3)c3c(N)nccn32)C1 [Linsitinib] (partner 1 µM) | ABC-1 | 1.01

Ask: Look up relative viability for this compound: COc1nc(C)cnc1NS(=O)(=O)c1cccnc1-c1ccc(-c2nnco2)cc1 [Zibotentan] + Cc1nc(NC(=O)N2CCC[C@H]2C(N)=O)sc1-c1ccnc(C(C)(C)C(F)(F)F)c1 [Alpelisib] (partner 2 µM)
Result: 1.11

Ask: Look up relative viability for this compound: COc1nc(C)cnc1NS(=O)(=O)c1cccnc1-c1ccc(-c2nnco2)cc1 [Zibotentan] + Cc1nc(Nc2ncc(C(=O)Nc3c(C)cccc3Cl)s2)cc(N2CCN(CCO)CC2)n1 [Dasatinib] (partner 0.075 µM)
Result: 0.548

Ask: Look up relative viability for this compound: O=c1cc(-c2cccc3c2Sc2ccccc2S3)oc(N2CCOCC2)c1 + CS(=O)(=O)N1CCN(Cc2cc3nc(-c4cccc5[nH]ncc45)nc(N4CCOCC4)c3s2)CC1 [Pictilisib] (partner 1 µM)
Result: 0.607

Ask: Look up relative viability for this compound: O=c1cc(-c2cccc3c2Sc2ccccc2S3)oc(N2CCOCC2)c1 + CC(C)C[C@H](NC(=O)[C@H](Cc1ccccc1)NC(=O)c1cnccn1)B(O)O [Bortezomib] (partner 0.002 µM)
Result: 0.249

Ask: Look up relative viability for this compound: COc1nc(C)cnc1NS(=O)(=O)c1cccnc1-c1ccc(-c2nnco2)cc1 [Zibotentan] + CCNC(=O)c1noc(-c2cc(C(C)C)c(O)cc2O)c1-c1ccc(CN2CCOCC2)cc1 [Luminespib] (partner 0.01 µM)
Result: 0.694

Ask: Look up relative viability for this compound: COc1nc(C)cnc1NS(=O)(=O)c1cccnc1-c1ccc(-c2nnco2)cc1 [Zibotentan] + CC(=O)c1c(C)c2cnc(Nc3ccc(N4CCNCC4)cn3)nc2n(C2CCCC2)c1=O [Palbociclib] (partner 0.5 µM)
Result: 0.664

Ask: Look up relative viability for this compound: COc1nc(C)cnc1NS(=O)(=O)c1cccnc1-c1ccc(-c2nnco2)cc1 [Zibotentan] + O=C(c1cc(Cc2n[nH]c(=O)c3ccccc23)ccc1F)N1CCN(C(=O)C2CC2)CC1 [Olaparib] (partner 8 µM)
Result: 0.8

Ask: Look up relative viability for this compound: O=c1cc(-c2cccc3c2Sc2ccccc2S3)oc(N2CCOCC2)c1 + Cc1cc(Nc2cc(N3CCN(C)CC3)nc(Sc3ccc(NC(=O)C4CC4)cc3)n2)n[nH]1 [Tozasertib] (partner 0.1 µM)
Result: 0.158

---

Test system: HCC-366
Experiment: relative viability (nuclei count vs DMSO), 5 days (fraction); higher = more cells survive
Conditions: first compound 0.03162 µM
Recorded relative viability determines the group label, using low group: < 0.4; middle group: ≥ 0.4 and < 0.7; high group: ≥ 0.7

Worked examples, 4 compounds total:
compound | classification
O=c1cc(N2CCOCC2)oc2c(-c3cccc4c3sc3ccccc34)cccc12 + C[C@@H](Oc1cc(-c2cnn(C3CCNCC3)c2)cnc1N)c1c(Cl)ccc(F)c1Cl [Crizotinib] (partner 1 µM) | middle group
O=c1cc(N2CCOCC2)oc2c(-c3cccc4c3sc3ccccc34)cccc12 + O=C(c1cc(Cc2n[nH]c(=O)c3ccccc23)ccc1F)N1CCN(C(=O)C2CC2)CC1 [Olaparib] (partner 8 µM) | low group
O=c1cc(N2CCOCC2)oc2c(-c3cccc4c3sc3ccccc34)cccc12 + CC1(C)CCC(c2ccc(Cl)cc2)=C(CN2CCN(c3ccc(C(=O)NS(=O)(=O)c4ccc(N[C@H](CCN5CCOCC5)CSc5ccccc5)c(S(=O)(=O)C(F)(F)F)c4)cc3)CC2)C1 [Navitoclax] (partner 0.5 µM) | high group
CCN(CC)CCCCNc1ncc2cc(-c3cc(OC)cc(OC)c3)c(NC(=O)NC(C)(C)C)nc2n1 + CS(=O)(=O)CCNCc1ccc(-c2ccc3ncnc(Nc4ccc(OCc5cccc(F)c5)c(Cl)c4)c3c2)o1 [Lapatinib] (partner 2 µM) | high group

Moving on to another compound below.
Ask: Exam item: assign CCN(CC)CCCCNc1ncc2cc(-c3cc(OC)cc(OC)c3)c(NC(=O)NC(C)(C)C)nc2n1 + O=C(CCCCCCC(=O)Nc1ccccc1)NO [Vorinostat] (partner 1 µM) to the correct category.
Result: low group

---

Below, each entry is listed alongside its reported relative viability.
System: NCI-H1755
Experiment: relative viability (nuclei count vs DMSO), 5 days (fraction); higher = more cells survive
Settings: first compound 20 µM
Answer with the value's number alone.

molecule | relative viability
COCC1(CO)C(=O)C2CCN1CC2 (centres undefined) [PRIMA-1MET] + NC(=O)Nc1cc(-c2cccc(F)c2)sc1C(=O)N[C@H]1CCCNC1 [AZD7762] (partner 0.2 µM) | 0.446

Ask: Look up relative viability for this molecule: COCC1(CO)C(=O)C2CCN1CC2 (centres undefined) [PRIMA-1MET] + COc1cc2c(Oc3ccc(NC(=O)C4(C(=O)Nc5ccc(F)cc5)CC4)cc3F)ccnc2cc1OCCCN1CCOCC1 [Foretinib] (partner 0.25 µM)
Result: 0.867

Ask: Look up relative viability for this molecule: COCC1(CO)C(=O)C2CCN1CC2 (centres undefined) [PRIMA-1MET] + O=C(CCCCCCC(=O)Nc1ccccc1)NO [Vorinostat] (partner 1 µM)
Result: 0.663

Ask: Look up relative viability for this molecule: COCC1(CO)C(=O)C2CCN1CC2 (centres undefined) [PRIMA-1MET] + CC(=O)c1c(C)c2cnc(Nc3ccc(N4CCNCC4)cn3)nc2n(C2CCCC2)c1=O [Palbociclib] (partner 0.5 µM)
Result: 0.459
